Target: recombinant protein containing hST2 extracellular domain with human antibody heavy chain Fc tag (hST2-ECD-hFc) (human)
Sequence (chain, as listed by the source limits assumed): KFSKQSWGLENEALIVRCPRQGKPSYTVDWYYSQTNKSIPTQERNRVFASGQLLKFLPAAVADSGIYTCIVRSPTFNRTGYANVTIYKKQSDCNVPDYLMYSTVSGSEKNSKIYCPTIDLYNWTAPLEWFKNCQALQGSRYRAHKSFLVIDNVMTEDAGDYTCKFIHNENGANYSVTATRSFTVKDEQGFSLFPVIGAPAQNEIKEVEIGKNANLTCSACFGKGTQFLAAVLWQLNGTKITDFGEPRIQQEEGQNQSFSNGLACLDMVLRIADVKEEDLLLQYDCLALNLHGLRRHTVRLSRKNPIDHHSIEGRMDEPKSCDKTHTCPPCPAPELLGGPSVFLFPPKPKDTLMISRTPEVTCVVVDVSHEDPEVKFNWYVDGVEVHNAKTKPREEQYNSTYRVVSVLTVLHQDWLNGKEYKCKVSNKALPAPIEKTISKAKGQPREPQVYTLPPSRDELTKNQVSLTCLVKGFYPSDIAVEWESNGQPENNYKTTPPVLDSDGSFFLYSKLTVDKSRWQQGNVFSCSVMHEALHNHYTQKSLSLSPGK
Assay: competition ELISA, coated hST2-ECD-hFc, antibody then biotin-labeled hIL33 Avitag (competitor)
Listed binders paired with reported IC50
State the answer as a number, implicitly in nM.

Before answering, review these 2 worked examples.
Chimeric 26A1 (antibody, human IgG2, kappa, V domains shown, also called xi26A1) VH: QVQLQQSGAELVRPGASVTLSCKASDYIFTDSEIHWVKQTLVHGLEWIGAIDPETGDTAYNQKFKGKATLTADKSSSTAYMELSSLTSEGSAVYYCSGSTTDCYFAYWGQGTTLTVSS VL: DIVMTQAAFSNPVTLGTSASISCRSSKSLLHSNGIIYLYWYLQKPGQSPQLLIYQMSNLASGVPDRFSSSGSGTDFTLRISRVEAEDVGVYYCAQNLELPFTFGSGTKLEIKR	2.53
Chimeric 3C6 (antibody, human IgG2, kappa, V domains shown, also called xi3C6) VH: QVQLQQSGAEVVRPGASVTLSCKASDYTITDYEMHWVKQTPVHGLEWIGAIDPETGDTAYSQNFKGKATLTADESSSTAYMELSSLTSEDSAVYYCSRSATDYYFASWGQGTTLTVSS VL: DIVMTQAAISNPVTLGTSASMSCRSSKSLLHSNGITYLYWYLQKPGHSPQLLIYQMSNLASGVPDRFSSSGSGTDFTLKISRVEAEDVGVYYCAQNLELPFTFGSGTKLEIKR	2.52

Please find the next binder below.
Input: Please report IC50 for the following binder: Chimeric 8F4 (antibody, human IgG2, kappa, V domains shown, also called xi8F4) VH: QVQLQQSGAELVRPGASVTLSCKASGHIFTDYEMQWVKQTPVHGLEWIGAFDPETGDTAYNQKFKGKATLTADKSSSTAYMELSSLTSEDSAVYYCSGSTTDYYFAYWGQGTSLTVSS VL: DVVMTQTAFSNPVTLGTSASISCRSSKSLLHSNGIIYLYWYLQKPGQSPQLLIYQMSNLASGVPDRFSSSGSGTDFTLRISRVEAEDVGVYYCAQNLELPFTFGSGTKLEIKR
Output: 2.79

This collection of values is drawn from patent US20230272086A1.
